Assay: recombinant UMI read abundance after kanamycin selection (control-corrected) (log10(CPM+1)); higher = more efficient recombination; extreme values may be limits of the assay; sequences stand for … in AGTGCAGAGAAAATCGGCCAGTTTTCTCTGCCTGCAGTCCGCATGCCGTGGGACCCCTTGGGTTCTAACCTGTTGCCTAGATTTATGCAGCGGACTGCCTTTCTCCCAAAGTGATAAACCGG…AGGTTGGTTTCACT; site = the 11-nt donor;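 further: IS621 bridge recombinase in Escherichia coli cells against a fixed T5 target plasmid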
The entries below come with measured recombinant UMI read abundance (log10) values attached.
observed-property: recombinant UMI read abundance (log10)

>>> numeric_value("CCGTTCGCATGGACCGGTTTTCCCGGTAATCCGTATTTGTG (site CCGTTCGCTCA)")
0.0261
>>> numeric_value("GATTGGACATGGACCGGTTTTCCCGGTAATCCGTATTTGGC (site GATTGGACTGA)")
0
>>> numeric_value("GGGAAGGCATGGACCGGTTTTCCCGGTAATCCGTATTTGCA (site GGGAAGGCTTG)")
2.86
>>> numeric_value("CGATGACCATGGACCGGTTTTCCCGGTAATCCGTATTTGCT (site CGATGACCTAG)")
0
>>> numeric_value("ACATCCTCATGGACCGGTTTTCCCGGTAATCCGTATTTGTC (site ACATCCTCTGA)")
2.8
